Origin of measurements: BigSolDB 2.1

- protocol_conditions: in isopropanol, 318.15 K
property: solubility (mole fraction)

[[record]]
chemical_string = "O=C(O)c1cc2ccccc2cc1O"
property = "solubility (mole fraction)"
readout_value = 0.0446


----------
- protocol_conditions: in n-propanol, 333.15 K
property: solubility (mole fraction)

[[record]]
chemical_string = "O=C(O)c1cc2ccccc2cc1O"
readout_value = 0.0574


----------
- protocol_conditions: in methanol, 298.15 K
property: solubility (mole fraction)

[[record]]
chemical_string = "O=C(O)c1cc2ccccc2cc1O"
readout_value = 0.0155


----------
- protocol_conditions: in ethanol, 333.15 K
property: solubility (mole fraction)

[[record]]
chemical_string = "O=C(O)c1cc2ccccc2cc1O"
property = "solubility (mole fraction)"
readout_value = 0.0619

